Tested on: Scopulariopsis brevicaulis
run-description: minimal inhibiting concentration (MIC), filter disc agar plate test
Format: cell-based
condition-description: S. brevicaulis; Sabouraud agar, three days incubation
measured-attribute: MIC

These solved cases illustrate the format of a correct answer.
molecule: S=C1SCN(Cc2ccccc2)CN1Cc1ccccc1 [A, reference compound]
MIC: > 1 % conc.

molecule: COCCN1CSC(=S)N(CCOC)C1
MIC: < 0.005 % conc.

molecule: OCCN1CSC(=S)N(CCO)C1 [B, reference compound]
MIC: 0.1 % conc.

Attention now turns to another entry.
# molecule COCCCN1CSC(=S)N(CCCOC)C1 ; its MIC = 0.005 % conc.

====

// MIC lookup, one value per entry
System: Trichoderma viride
run-description: minimal inhibiting concentration (MIC), filter disc agar plate test
Format: cell-based
condition-description: T. viride; Sabouraud agar, three days incubation
Provide the reading as a plain figure in % conc..

molecule: OCCN1CSC(=S)N(CCO)C1 [B, reference compound]
measured-attribute: MIC
unit-tag: % conc.
value: 1

# molecule COCCCN1CSC(=S)N(CCCOC)C1 [Ex. 1] ; its MIC = 0.03

# molecule COCCN1CSC(=S)N(CCOC)C1 [Ex. 2] ; its MIC = 0.1

====

System: Chaetomium globosum
run-description: minimal inhibiting concentration (MIC), filter disc agar plate test
Type: cell-based
condition-description: C. globosum; Sabouraud agar, three days incubation
// MIC lookup, one value per entry

# compound S=C1SCN(Cc2ccccc2)CN1Cc1ccccc1 [A, reference compound] ; its MIC = > 1 % conc.

# compound OCCN1CSC(=S)N(CCO)C1 [B, reference compound] ; its MIC = 1 % conc.

# compound COCCN1CSC(=S)N(CCOC)C1 ; its MIC = 0.01 % conc.

# compound COCCCN1CSC(=S)N(CCCOC)C1 ; its MIC = 0.005 % conc.

====

// MIC lookup, one value per entry
Tested on: Sclerophoma pityophila
run-description: minimal inhibiting concentration (MIC), filter disc agar plate test
Type: cell-based
condition-description: S. pityophila; Sabouraud agar, three days incubation

compound: COCCN1CSC(=S)N(CCOC)C1 [Ex. 2]
measured-on: Sclerophoma pityophila
value: < 0.005 % conc.
//
compound: COCCCN1CSC(=S)N(CCCOC)C1 [Ex. 1]
measured-on: Sclerophoma pityophila
value: 0.005 % conc.
//
compound: CCOCCCN1CSC(=S)N(CCCOCC)C1 [Ex. 4]
measured-on: Sclerophoma pityophila
value: < 0.003 % conc.
//
compound: OCCN1CSC(=S)N(CCO)C1 [B, reference compound]
measured-on: Sclerophoma pityophila
value: 0.01 % conc.

# compound S=C1SCN(Cc2ccccc2)CN1Cc1ccccc1 [A, reference compound] ; its MIC = > 1 % conc.

====

Test system: Aspergillus niger
run-description: minimal inhibiting concentration (MIC), filter disc agar plate test
Format: cell-based
condition-description: A. niger; Sabouraud agar, three days incubation
measured-attribute: MIC (% conc.)
Provide the reading as a plain figure in % conc..

compound: OCCN1CSC(=S)N(CCO)C1 [B, reference compound]
measured-on: Aspergillus niger
unit-tag: % conc.
MIC: 1

Value sought: MIC, system Aspergillus niger, item COCCN1CSC(=S)N(CCOC)C1 . Result: 0.1

Value sought: MIC, system Aspergillus niger, item COCCCN1CSC(=S)N(CCCOC)C1 . Result: 0.03

====

Tested on: Candida albicans
run-description: minimal inhibiting concentration (MIC), filter disc agar plate test
Assay type: cell-based
condition-description: C. albicans; Sabouraud agar, three days incubation
measured-attribute: MIC (% conc.)
Provide the reading as a plain figure in % conc..

compound: OCCN1CSC(=S)N(CCO)C1 [B, reference compound]
MIC / % conc.: 1

Value sought: MIC, system Candida albicans, item CCOCCCN1CSC(=S)N(CCCOCC)C1 . Result: 0.01

Value sought: MIC, system Candida albicans, item COCCN1CSC(=S)N(CCOC)C1 . Result: 0.05

Value sought: MIC, system Candida albicans, item COCCCN1CSC(=S)N(CCCOC)C1 . Result: 0.05
